# TEST TARGET: human plasma kallikrein (Homo sapiens, UniProt P03952)
# Sequence (P03952 391-638 limits assumed): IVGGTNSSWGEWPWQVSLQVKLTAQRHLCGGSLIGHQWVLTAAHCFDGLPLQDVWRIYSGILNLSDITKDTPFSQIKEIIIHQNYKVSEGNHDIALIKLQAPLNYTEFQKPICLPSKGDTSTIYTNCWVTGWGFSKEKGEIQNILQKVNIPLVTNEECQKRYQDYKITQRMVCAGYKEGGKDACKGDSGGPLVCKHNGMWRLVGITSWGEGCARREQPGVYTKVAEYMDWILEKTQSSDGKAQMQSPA
# Sequence (P03952 20-390 partner limits assumed): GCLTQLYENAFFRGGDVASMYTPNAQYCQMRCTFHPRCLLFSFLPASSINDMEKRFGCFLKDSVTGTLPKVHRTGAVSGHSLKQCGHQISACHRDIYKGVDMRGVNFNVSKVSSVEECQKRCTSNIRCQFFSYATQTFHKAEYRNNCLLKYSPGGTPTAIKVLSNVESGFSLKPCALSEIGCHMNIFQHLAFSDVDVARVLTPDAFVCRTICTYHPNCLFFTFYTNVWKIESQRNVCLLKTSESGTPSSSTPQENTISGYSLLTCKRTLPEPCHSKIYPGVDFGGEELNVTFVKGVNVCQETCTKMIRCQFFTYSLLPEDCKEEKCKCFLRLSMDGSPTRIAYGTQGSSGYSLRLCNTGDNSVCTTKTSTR
# ASSAY TEXT: Kallikrein inhibition FLINT assay with quenched AMC peptide substrate Z-Gly-Pro-Arg-AMC (end point EP or kinetic KIN reads)
# Type: biochemical
# CONDITION DESCRIPTION: kinetic reads at 5 min intervals over 30 min; read-out: Kallikrein (KIN) IC50
PROPERTY: log10 IC50 (log10 of the value in nM)

| COMPOUND | log10 IC50 |
| --- | --- |
| [O-][n+]1cc(-c2c(-n3cnnn3)ccc(Cl)c2F)ccc1C(Cn1cc(F)cn1)n1cc(-c2ccnc(C(F)(F)F)c2)cn1 (stereo not drawn) [Example P332] | 1.77 |
| COC(=O)Nc1ccc(-c2cnn(C(CC3CC3C(=O)N3CCCCC3)c3ccc(-c4c(-n5cnnn5)ccc(Cl)c4F)c[n+]3[O-])c2)cc1 (stereo not drawn) | 2.56 |
| NC(=O)c1ccc(-c2cnn([C@H](CCOC(F)F)c3ccc(-c4c(-n5cc(C(F)(F)F)nn5)ccc(Cl)c4F)c[n+]3[O-])c2)cc1F | 1.01 |
| Cn1cc(C[C@H](c2ccc(-c3c(-n4cc(Cl)nn4)ccc(Cl)c3F)c[n+]2[O-])n2cc(-c3ccnc(C(F)(F)F)c3)cn2)nn1 | 1.36 |
| O=c1[nH]c(-c2ccc(-c3cnn(C(CCOC(F)F)c4ccc(-c5c(-n6cc(C(F)(F)F)nn6)ccc(Cl)c5F)c[n+]4[O-])c3)cc2)no1 (stereo not drawn) | 1.06 |
| [2H]C([2H])([2H])n1nccc1-c1cnn([C@H](CCOC(F)F)c2ccc(-c3c(-n4cnnn4)ccc(Cl)c3F)c[n+]2[O-])c1 | 0.38 |
| Cc1cc(C(N)=O)sc1-c1cnn(C(CC2CC2)c2ccc(-c3c(-n4cnnn4)ccc(Cl)c3F)c[n+]2[O-])c1 (stereo not drawn) | 1.72 |
| CNc1ncc(-c2cnn([C@H](CCOC(F)F)c3ccc(-c4c(-n5cnnn5)ccc(Cl)c4F)c[n+]3[O-])c2)cn1 | 1.75 |
| COc1cc(C(Cc2ccn(C(F)F)n2)n2cc(-c3ccc(C(N)=O)c(F)c3)cn2)[n+]([O-])cc1-c1cc(Cl)ccc1C(C)=O (single isomer, unassigned) [Example Q78] | 2.71 |
| [O-][n+]1cc(-c2c(-n3cnnn3)ccc(Cl)c2F)ccc1C(Cn1cccn1)n1cc(-c2ccnc(F)c2)cn1 (stereo not drawn) | 0.96 |
| CN(CC(c1ccc(-c2c(-n3cnnn3)ccc(Cl)c2F)c[n+]1[O-])n1cc(-c2ccnc(C(F)(F)F)c2)cn1)C(=O)c1ccn(C)c(=O)c1 (single isomer, unassigned) [Example P435] | 0.99 |
